- Organism: Mus musculus
- assayComment: Concentration required to inhibit electrically induced contractions in isolated mouse vas deferens preparation in vitro
- Format: functional
- condition: Mus musculus
pIC50: −log10 of the molar value.
Response key: Yes means pIC50 >= 7; No means pIC50 < 7.

// known answers, use as guide
Cc1c(C(=O)c2ccc(-c3ccccc3)cc2)c2ccccc2n1CCN1CCOCC1: No
Cc1cc(C)cc(C(=O)c2c(C)n(CCN3CCOCC3)c3ccccc23)c1: No
Cc1c(C(=O)c2ccc(C#N)c3ccccc23)c2ccccc2n1CCN1CCOCC1: Yes

Incoming: Decide: pIC50 of Cc1c(C(=O)c2ccc3ccccc3c2)c2ccccc2n1CCN1CCOCC1 >= 7?
Outgoing: Yes

Incoming: Decide: pIC50 of Cc1cccc(C)c1C(=O)c1c(C)n(CCN2CCOCC2)c2ccccc12 >= 7?
Outgoing: No

Incoming: Decide: pIC50 of O=C(c1ccc(Br)c2ccccc12)c1cn(CCN2CCOCC2)c2ccccc12 >= 7?
Outgoing: Yes

Incoming: Decide: pIC50 of O=C(c1c2ccccc2cc2ccccc12)c1cn(CCN2CCOCC2)c2ccccc12 >= 7?
Outgoing: No

Incoming: Decide: pIC50 of COc1ccc(C(=O)c2c(C)n(CC[N+]3(C)CCOCC3)c3ccccc23)cc1 >= 7?
Outgoing: No

Incoming: Decide: pIC50 of Cc1c(C(=O)c2coc3ccccc23)c2ccccc2n1CCN1CCOCC1 >= 7?
Outgoing: Yes

Source of measurements: ChEMBL document CHEMBL1128746
